# measured-target: rat mGlu8 (Rattus norvegicus)
# Sequence (P70579 34-908): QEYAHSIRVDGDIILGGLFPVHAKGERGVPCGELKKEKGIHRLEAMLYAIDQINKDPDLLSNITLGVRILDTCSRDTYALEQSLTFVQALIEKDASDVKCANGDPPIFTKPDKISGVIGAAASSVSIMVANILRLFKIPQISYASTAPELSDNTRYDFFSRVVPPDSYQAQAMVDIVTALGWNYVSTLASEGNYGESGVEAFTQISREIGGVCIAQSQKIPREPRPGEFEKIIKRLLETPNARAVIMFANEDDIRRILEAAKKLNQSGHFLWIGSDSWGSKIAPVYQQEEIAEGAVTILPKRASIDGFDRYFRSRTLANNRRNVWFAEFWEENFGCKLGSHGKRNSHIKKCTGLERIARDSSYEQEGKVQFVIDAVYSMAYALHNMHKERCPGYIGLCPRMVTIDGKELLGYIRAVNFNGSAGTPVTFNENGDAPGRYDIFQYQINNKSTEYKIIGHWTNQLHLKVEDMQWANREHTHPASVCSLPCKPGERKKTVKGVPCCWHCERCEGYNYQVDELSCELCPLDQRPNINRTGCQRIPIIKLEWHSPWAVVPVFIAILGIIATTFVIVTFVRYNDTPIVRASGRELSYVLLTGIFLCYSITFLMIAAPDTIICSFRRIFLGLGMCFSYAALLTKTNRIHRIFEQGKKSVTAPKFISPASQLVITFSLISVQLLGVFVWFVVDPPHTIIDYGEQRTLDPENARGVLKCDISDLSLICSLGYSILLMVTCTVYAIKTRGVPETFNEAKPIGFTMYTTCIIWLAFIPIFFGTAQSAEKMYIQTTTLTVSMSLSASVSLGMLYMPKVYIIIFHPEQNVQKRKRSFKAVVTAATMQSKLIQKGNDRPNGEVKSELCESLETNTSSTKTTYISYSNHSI
# assay-info: Thallium flux assay, HEK293 cells expressing rat mGlu8 and GIRK1/2 channels
pEC50: −log10 of the molar value.

# compound, pEC50
data = [
    ("COC(=O)c1ccc(-n2c(C)cc(C(=O)CSc3ccc(NC(C)=O)cc3)c2C)cc1 [Compound 1]", 5.79),
]

# credit: paper PMC4306484
